Measured Ratio/Fc-H, listed per entry.
# Tested target: T1, FcRn-p3 fusion protein (human, UniProt P55899 24-297; P61769 21-119)
# T1 construct: baculovirus expressed; coated on ELISA wells; not shown: amino terminal part of bacteriophage p3 protein and CVDE protein
# T1 sequence (P55899 24-297, chain 1 of 2): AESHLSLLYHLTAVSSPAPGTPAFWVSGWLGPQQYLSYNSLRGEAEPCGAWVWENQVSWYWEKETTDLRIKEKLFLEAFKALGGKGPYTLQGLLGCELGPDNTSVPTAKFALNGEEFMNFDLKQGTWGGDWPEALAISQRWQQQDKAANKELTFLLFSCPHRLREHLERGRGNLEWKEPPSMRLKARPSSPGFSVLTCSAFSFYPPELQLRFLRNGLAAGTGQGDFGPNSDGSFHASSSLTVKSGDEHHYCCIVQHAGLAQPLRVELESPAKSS
# T1 sequence (P61769 21-119, chain 2 of 2): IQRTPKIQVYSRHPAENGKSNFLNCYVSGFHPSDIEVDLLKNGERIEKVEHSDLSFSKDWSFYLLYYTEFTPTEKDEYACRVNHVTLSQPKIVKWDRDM
# Protocol notes: phage ELISA pH6
Lab book: enter the figure in fold, no units written.

Solved cases (3 shown):
| Binder | Ratio/Fc-H / fold |
| --- | --- |
| C6A_69 (other, EU numbering) CPPCPAPELLGGPSVFLFPPKPKDTLMISRTPEVTCVVVDVSHEDPEVKFNWYVDGVEVHNAKTKPREEQYNSTYRVVSVLAVLHQDWLDGKEYKCKVSNKALPVPIEKTISKAKGQPREPQVYTLPPSRDELTKNQVSLTCLVKGFYPSDIAVEWVSNGQPETNYKTTPPVLDSDGSFFLYSKLTVDKSRWQQGNVFSCSVMHEALHYHYTQKSLSLSPGK | 8.9 |
| C6A_69D (other, EU numbering) CPLCPAPELLGGPSVFLFPPKPKDTLMISRTPEVTCVVVDVSHEDPEVKFNWYVDGVEVHNAKTKPREEQYNSTYRVVSVLAVLHQDWLDGKEYKCKVSNKALPVPIEKTISKAKGQPREPQVYTLPPSRDELTKNQVSLTCLVKGFYPSDIAVEWVSNGQPETNYKTTPPVLDSDGSFFLYSKLTVDKSRWQQGNVFSCSVMHEALHYHYTQKSLSLSPGK | 4.8 |
| T5A_93 (other, EU numbering) CPPCPAPELLGGPSVFLFPPKPKDTLMISRTPEVTCVVVDVSHEDPEVKFNWYVDGVEVHNAKTKPREEQYNSTYRVVSALTVLHQDWLDGKEYKCKVSNKALPVPIEKTISKAKGQPREPQVYTLPPSRDELTKNQVSLTCLVKGFYPSDIAVEWESNGQPENNYKTTAPVLDSDGSFFLYSKLTVDKSRWQQGNVFSCSVMHEALHYHYTQKSLSLSPGK | 8 |

Q: # get_value(readout='Ratio/Fc-H', item= T4A_42 (other, EU numbering) GPPCPAPELLGGPSVFLFPPKPKDTLMISRTPEVTCVVVDVSHEDPEVKFNWYVDGVEVHNAKTKPREEQYNSTYRVVSVLTVLHQDWLDGKEYKCKVSNKALPAPIEKTISKAKGQPREPQVYTLPPSRDELTKNRVSLTCLVKGFYPSDIAVEWESNGQPENNYKTTPPVLDSDGSFFLYSKLTVDKSRWQQGNVFSCSVMHEALHYHYTQKSLSLSPGK )
A: 4.6

Q: How about this binder: T5A_25 (other, EU numbering) GPPCPAPELLGGPSVFLFPPKPKDTLMISRTPEVTCVVEDVSHEDPEVKFNWYVDGVEVHNAKTKPREEQYNSTYRVVSVLTVLHQDWLNGKEYKCKVSNKALPAPIEKTISKAKGQPREPRVYTLPPSRDELTKNQVSLTCLVRGFYPSDIVVEWESNGQPENNYKTTPPVLDSDGSFFLYSKLTVDKSRWQQGNVFSCSVMHEALHSHYTQKSLSLSPGK
A: 4.6

Q: How about this binder: C8A_15 (other, EU numbering) CPPCPAPELLGGPSVFLFPPKPKDTLMISRTPEVTCVVVDVSHEDPEVKFNWYVDGVEVHNAKTKPREEQYNSTYRVVSVLTVLHQDWLDGKEYKCKVSNKVLPVPIEKTISKAKGQPREPQVYTLPPSRDELTKNQVSLTCLVKGFYPSDIAVEWESNGQPENNYKTTPPMLDSDGSFFLYSKLTVDKSRWQQGNVFSCSVMHEALHYHYTQKSLSLSPGK
A: 7.4

Q: How about this binder: T6A_75 (other, EU numbering) CPPCTAPELLGGPSVFLFPPKPKDTLMISRTPEVTCVVVDVSHEDPEVKFNWYVDGVEVHNAKTKPREEQYNSTYRVVSVLTVLHQDWLDGKEYKCKVSNKALPAPIEKTISKAKGQPREPQVYTLPPSRDELTKNRVSLTCLVKGFYPSDIAVEWESNGQPENNYKTTPPVLDSDGSFFLYSKLTVDKSRWQQGNVFSCTVMHEALHYHYTQKSLSLSPGK
A: 5.7

Q: How about this binder: T5A_87 (other, EU numbering) CPPCPAPELLGGPSVFLFPPKPKDTLMISRTPEVTCVVVDVSHEDPEVKFNWYVDGVEVHNAKTKPREEQYNSTYRVVSVLTVLHQDWLDGKEYKCKVSNKALPVPIEKTISKAKGQPREPQVYTLPPSRDELTKNRVSLTCLVKGFYPSDIAVEWESNGQPENNYKTTPPVLDSDGSFFLYSKLTVDKSRWQQGNVFSCSVMHEALHYHYTQKSLSLSPGK
A: 7.8

Q: How about this binder: C6A_48 (other, EU numbering) CPPCTAPELLGGPSVFLFPPKPKDTLMISRTPEVTCVVEDVSHEDPEVKFNWYVDGVEVHNAKTKPREEQYNSTYRVVSVLTVLHQDWLNGKEYKCKVSNKALPAPIEKTISKAKGQPREPQVYTLPPSRDELTKNQVSLTCLVKGFYPSDIVVEWESNGQPENNYKTTPPVLDSDGSFFLYSKLTVDKSRWQQGNVFSCSVMHEALHSHYTQKSLSLSPGK
A: 4.5

Q: How about this binder: C5A_65 (other, EU numbering) CPPCTAPELLGGPSVFLFPPKPKDTLMISRTPEVTCVVVDVSHEDPEVKFNWYVDGVEVHNAKTKPREEQYNSTYRVVSVLTVLHQDWLDGKEYKCKVSNKALPVPIEKTISKAKGQPREPQVYTLPPSRDELTKNQVSLTCLVKGFYPSDIAVEWESNGKPENNYKTTPPVLDSDGSFFLYSKLTVDKSRWQQGNVFSCSVMHEALHYHYTQKSLSLSPGK
A: 4.2
